# Test system: Saccharomyces cerevisiae BY4741 SeMeCo community
# ASSAY TEXT: z-score of subpopulation abundance vs DMSO median, subpopulation auxotrophic for HLM; higher = larger share of this subpopulation than in DMSO controls
# PROTOCOL CONDITIONS: 10 µM; 24 h; SM minimal medium; subpopulation (auxotrophy): HLM
Where a name gives a salt, the structure may show the parent alone.
METRIC NAME: z-score of subpopulation abundance
Please state the value as a number alone, without comment.

Record excerpt, results attached:
# MOLECULE, z-score of subpopulation abundance
data = [
    ("C#C[C@]1(O)CC[C@H]2[C@@H]3CCc4cc(OC)ccc4[C@H]3CC[C@@]21C", -0.48),
    ("CC1(C)S[C@@H]2[C@H](NC(=O)[C@H](N)c3ccccc3)C(=O)N2[C@H]1C(=O)OCOC(=O)[C@@H]1N2C(=O)C[C@H]2S(=O)(=O)C1(C)C [Sultamicillin Tosylate]", -0.09),
    ("CCOC(=O)C1=C(C)NC(C)=C(C(=O)OCC)C1c1ccccc1/C=C/C(=O)OC(C)(C)C", 1.17),
    ("COc1ccc2[nH]c([S@@+]([O-])Cc3ncc(C)c(OC)c3C)nc2c1 [NEXIUM (esomeprazole magnesium)]", 1.32),
]

Fill in z-score of subpopulation abundance for record COc1cc(N)c(Cl)cc1C(=O)NC1CCN(CCCOc2ccc(F)cc2)CC1OC (configuration not stated) [Cisapride] -0.82

Fill in z-score of subpopulation abundance for record COC(=O)C1=C(C)NC(C)=C(C(=O)OCC(C)C)C1c1ccccc1[N+](=O)[O-] (configuration not stated) 0.45

Fill in z-score of subpopulation abundance for record OC(CCCN1CCCCC1)(c1ccccc1)c1ccccc1 [Diphenidol HCl] -0.07

###

# Tested on: Saccharomyces cerevisiae BY4741 SeMeCo community
# ASSAY TEXT: z-score of subpopulation abundance vs DMSO median, subpopulation auxotrophic for HL; higher = larger share of this subpopulation than in DMSO controls
# PROTOCOL CONDITIONS: 10 µM; 24 h; SM minimal medium; subpopulation (auxotrophy): HL
Structures can show the parent of a compound that is named as a salt.
Entries and their measured z-score of subpopulation abundance follow.

Record excerpt, results attached:
# COMPOUND, READING
rows = [
    ("CN1CCN(CCCN2c3ccccc3Sc3ccc(Cl)cc32)CC1 [Prochlorperazine dimaleate salt]", 0.69),
    ("CO[C@H]1C[C@@H]2CC[C@@H](C)[C@@](O)(O2)C(=O)C(=O)N2CCCC[C@H]2C(=O)O[C@H]([C@H](C)C[C@@H]2CC[C@@H](OP(C)(C)=O)[C@H](OC)C2)CC(=O)[C@H](C)/C=C(\\C)[C@@H](O)[C@@H](OC)C(=O)[C@H](C)C[C@H](C)/C=C/C=C/C=C/1C", 13.8),
    ("COc1ccc(Cl)cc1C(=O)NCCc1ccc(S(=O)(=O)NC(=O)NC2CCCCC2)cc1 [Glyburide (Glibenclamide)]", 1.09),
    ("COc1ccc2cc3[n+](cc2c1OC)CCc1cc2c(cc1-3)OCO2 [Berberine chloride]", 0.31),
    ("CCC[C@@H]1C[C@@H](C(=O)N[C@@H]([C@H]2O[C@H](SC)[C@H](OP(=O)(O)O)[C@@H](O)[C@H]2O)[C@H](C)Cl)N(C)C1 [Clindamycin Phosphate]", -0.71),
]

Enter z-score of subpopulation abundance (test system Saccharomyces cerevisiae BY4741 SeMeCo community) for CNCC[C@@H](Oc1ccccc1C)c1ccccc1 [Atomoxetine HCl] -0.43

Enter z-score of subpopulation abundance (test system Saccharomyces cerevisiae BY4741 SeMeCo community) for `O=C(Cn1ccnc1[N+](=O)[O-])NCc1ccccc1` 0.08

Enter z-score of subpopulation abundance (test system Saccharomyces cerevisiae BY4741 SeMeCo community) for Cc1ccccc1C(OCCN(C)C)c1ccccc1 (stereo not given) [Orphenadrine Citrate] -1.07

Enter z-score of subpopulation abundance (test system Saccharomyces cerevisiae BY4741 SeMeCo community) for `O=C(CCCN1CCN(c2ccccn2)CC1)c1ccc(F)cc1` -0.42

Enter z-score of subpopulation abundance (test system Saccharomyces cerevisiae BY4741 SeMeCo community) for CCN(CC)CCOC(=O)c1ccc(N)cc1 [Procaine] -0.79

Enter z-score of subpopulation abundance (test system Saccharomyces cerevisiae BY4741 SeMeCo community) for CN(C)CCCN1c2ccccc2CCc2ccc(Cl)cc21 [Clomipramine HCl] -0.45

Enter z-score of subpopulation abundance (test system Saccharomyces cerevisiae BY4741 SeMeCo community) for `CCCN(CCc1cccs1)[C@H]1CCc2c(O)cccc2C1` 0.46

Enter z-score of subpopulation abundance (test system Saccharomyces cerevisiae BY4741 SeMeCo community) for CN[C@@H]1[C@H](O)[C@H](NC)[C@H]2O[C@@]3(O)C(=O)C[C@@H](C)O[C@H]3O[C@@H]2[C@H]1O [Spectinomycin 2HCl] -0.34

Enter z-score of subpopulation abundance (test system Saccharomyces cerevisiae BY4741 SeMeCo community) for `O=C(Nc1c(Cl)cncc1Cl)c1ccc(OC(F)F)c(OCC2CC2)c1` -0.5

Enter z-score of subpopulation abundance (test system Saccharomyces cerevisiae BY4741 SeMeCo community) for CO/N=C(\C(=O)N[C@@H]1C(=O)N2C(C(=O)O)=C(CSc3nc(C)c(CC(=O)O)s3)CS[C@H]12)c1csc(N)n1 [Cefodizime Sodium] -0.84

###

# System: Saccharomyces cerevisiae BY4741 SeMeCo community
# ASSAY TEXT: z-score of subpopulation abundance vs DMSO median, subpopulation auxotrophic for H; higher = larger share of this subpopulation than in DMSO controls
# PROTOCOL CONDITIONS: 10 µM; 24 h; SM minimal medium; subpopulation (auxotrophy): H
Counter-ions that a name gives are not always drawn.
Give T when the value for z-score of subpopulation abundance is at least 0.06. Give F when it is less.

Would you please look over these solved cases?
# COMPOUND, QUALITATIVE LABEL
measured = [
    ("O=C(O)CCC(=O)Nc1ccc(S(=O)(=O)Nc2nccs2)cc1", "F"),
    ("C[C@H]1COc2c(C3(N)CC3)c(F)cc3c(=O)c(C(=O)O)cn1c23 [Pazufloxacin mesylate]", "F"),
]

Switching to the query record.
# bool: z-score of subpopulation abundance of CCCCCCCCN=c1ccn(CCCCCCCCCCn2ccc(=NCCCCCCCC)cc2)cc1 [Octenidine Dihydrochloride] >= 0.06 T

###

Entries and their measured z-score of subpopulation abundance follow.
# Tested on: Saccharomyces cerevisiae BY4741 SeMeCo community
# ASSAY TEXT: z-score of subpopulation abundance vs DMSO median, subpopulation auxotrophic for LU; higher = larger share of this subpopulation than in DMSO controls
# PROTOCOL CONDITIONS: 10 µM; 24 h; SM minimal medium; subpopulation (auxotrophy): LU
Counter-ions that a name gives are not always drawn.
Please state the value as a number alone, without comment.

Enter z-score of subpopulation abundance (test system Saccharomyces cerevisiae BY4741 SeMeCo community) for Nc1c(Br)cc(Br)cc1CN[C@H]1CC[C@H](O)CC1 [Ambroxol HCl] -0.9

Enter z-score of subpopulation abundance (test system Saccharomyces cerevisiae BY4741 SeMeCo community) for CC(C)NNC(=O)c1ccncc1 [Iproniazid] 1.04

Enter z-score of subpopulation abundance (test system Saccharomyces cerevisiae BY4741 SeMeCo community) for OC(c1cc(C(F)(F)F)nc2c(C(F)(F)F)cccc12)C1CCCCN1 (stereo unspecified) [Mefloquine HCl] 1.02

###

# Test system: Saccharomyces cerevisiae BY4741 SeMeCo community
# ASSAY TEXT: z-score of subpopulation abundance vs DMSO median, subpopulation auxotrophic for HU; higher = larger share of this subpopulation than in DMSO controls
# PROTOCOL CONDITIONS: 10 µM; 24 h; SM minimal medium; subpopulation (auxotrophy): HU
Counter-ions that a name gives are not always drawn.
Give Satisfied when the value for z-score of subpopulation abundance is at least -0.1. Give Not satisfied when it is less.

# bool: z-score of subpopulation abundance of O=C1CN(/N=C/c2ccc(-c3ccc([N+](=O)[O-])cc3)o2)C(=O)N1 [Dantrolene sodium] >= -0.1 Not satisfied

# bool: z-score of subpopulation abundance of COc1ccccc1OCC(O)CN1CCN(CC(=O)Nc2c(C)cccc2C)CC1 (stereo not drawn) >= -0.1 Satisfied

# bool: z-score of subpopulation abundance of C[C@H]1c2cccc(O)c2C(O)=C2C(=O)[C@]3(O)C(O)=C(C(N)=O)C(=O)[C@@H](N(C)C)[C@@H]3[C@@H](O)[C@@H]21 [Doxycycline] >= -0.1 Not satisfied

# bool: z-score of subpopulation abundance of OCCN1CCN(CC/C=C2/c3ccccc3Sc3ccc(C(F)(F)F)cc32)CC1 [Flupenthixol dihydrochloride] >= -0.1 Satisfied

# bool: z-score of subpopulation abundance of `O=C1CCc2ccc(OCCCCN3CCN(c4cccc(Cl)c4Cl)CC3)cc2N1` >= -0.1 Satisfied

# bool: z-score of subpopulation abundance of `Cc1ccc(-c2ncc(Cl)cc2-c2ccc(S(C)(=O)=O)cc2)cn1` >= -0.1 Not satisfied

# bool: z-score of subpopulation abundance of `Cc1nc(C)c(Cl)c(O)c1Cl` >= -0.1 Not satisfied

FYI, the data here is from the supplement of paper PMC8975748.
